- System: ACHN
- protocol description: NCI tumour cell line growth inhibition, 48 h
Active and inactive are the calls of the source. Rule as the data show it: active = GI50 up to about 1.1 µM and inactive = higher.
Labels: active, inactive

                                   molecule  group_label
0  CC1(C)OC[C@@H](/C=C\CCO[Si](c2ccccc2)(c2ccccc2)C(C)(C)C)N1C(=O)c1ccccc1     inactive
1       c1ccc(-c2nc3ccccc3nc2SCc2cccnc2)cc1     inactive
2  CC1=NN(C(=O)c2ccccc2O)C(=O)/C1=C/c1cccc([N+](=O)[O-])c1       active
3  CCCCCCCCCCCCCCCCCC(=O)NCCCNCCCNC(=O)CCCCCCCCCCCCCCCCC     inactive
4  COC(=O)N1C2C(C[C@@]1(C)C(=O)OC)c1ccccc1N2S(=O)(=O)c1ccccc1 (stereo not given in full)     inactive
5  CC1=C(/C=C/C(C)=C/C=C/C(C)=C/C(=O)Nc2ccc(O)cc2)C(C)(C)CCC1 [FENRETINIDE]     inactive
6  CC1=C(C(=O)NCc2ccccc2)C(c2ccccc2C)C(C(=O)NCc2ccccc2)=C(C)N1     inactive
7  CCOC(=O)/C=C1/Oc2ccccc2C1(C)O (stereo not given)     inactive
8          CN1CCC(CN2c3ccccc3Sc3ccccc32)CC1     inactive
9  COc1cc(CNc2nc3cc(C(F)(F)F)ccc3nc2C(=O)O)cc(OC)c1OC     inactive

These entries and their values trace back to ChEMBL document CHEMBL1201862.
